System name: Neuropeptides B/W receptor type 1 (Homo sapiens) (UniProt P48145)
Sequence (P48145 whole entry, looked up): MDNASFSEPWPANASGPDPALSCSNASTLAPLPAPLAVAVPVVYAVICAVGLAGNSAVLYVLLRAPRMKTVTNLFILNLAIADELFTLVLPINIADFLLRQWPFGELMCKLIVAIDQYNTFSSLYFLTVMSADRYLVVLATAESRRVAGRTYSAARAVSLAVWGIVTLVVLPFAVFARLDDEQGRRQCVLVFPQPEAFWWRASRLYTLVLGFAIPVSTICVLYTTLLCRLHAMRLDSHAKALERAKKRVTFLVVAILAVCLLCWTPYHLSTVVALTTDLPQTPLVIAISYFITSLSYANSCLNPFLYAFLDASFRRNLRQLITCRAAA
Assay info: GPR7 receptor antagonists, primary screen, cell-based, fluorescence, single concentration (AID 1861);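 note: cells stimulated with the agonist NPW; 0% = agonist with vehicle and 100% = vehicle without agonist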
Measurement context: GPR7-expressing cells, fluorescence antagonist assay; at 4.4 µM; hits give high values
Screen size: about 290,000 compounds; about 3,100 (1.1%) were called active. Many of the other results were omitted from the sample, so actives are more common in it than they were.
Endpoint name: inhibition (%)
Give a bare numeral; the unit % is implied.

Name the reported inhibition value associated with the compound O=C(NCCc1c[nH]c2ccccc12)C1CCN(Cc2ccc(Br)cc2)CC1
6.85

Query Cc1cccc(N(C(=O)c2sc(C)nc2C)C(C(=O)NCC2CCCO2)c2ccccc2)c1 (stereo not drawn) next
-10.3

Query Cc1cccc(-n2c(SCC(=O)Nc3cccc(S(=O)(=O)NC4=NCCCCC4)c3)nc3ccccc3c2=O)c1C next
27.4

Query CN(C)/C=N/c1cc(=O)n(C)c(=O)n1CC1CC1 next
-1.62

Query Cc1ccc(CN2CCNC(=O)C2CC(=O)NCc2csc(C(C)C)n2)cc1 (stereo not drawn) next
7.42

Query COc1ccc(Nc2ncc(F)c(N3CCOCC3)n2)cc1 next
-9.42

Query CC(=O)NCCC(=O)Nc1cc(S(=O)(=O)N2CCCCC2)ccc1Oc1cccc(C)c1 next
9.48

###

System name: Neuropeptides B/W receptor type 1 (Homo sapiens) (UniProt P48145)
Assay info: GPR7 receptor antagonists, primary screen, cell-based, fluorescence, single concentration (AID 1861);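 note: cells stimulated with the agonist NPW; 0% = agonist with vehicle and 100% = vehicle without agonist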
Measurement context: GPR7-expressing cells, fluorescence antagonist assay; at 4.4 µM
The whole screen tested about 290,000 compounds, of which about 3,100 (1.1%) were called active. No stated cut-off is given here; in the data, active means inhibition above about 16% (passing the limit was not always enough); inactive means the rest. The sample holds actives, similar compounds and a random draw of the others, so the mix is not that of the screen.
Hello, when you answer, please use one of the following outcomes: yes = active, no = inactive

Reference set, count: 5
- Compound: "CSc1ccccc1NC(=O)CN(C)CC(=O)Nc1cccc(Br)c1"
  Assigned class: "no"
- Compound: "O=C(Nc1ccncc1)c1ccc(Cl)c([N+](=O)[O-])c1"
  Assigned class: "no"
- Compound: "COc1cccc(C2CC(c3ccccc3)=NN2S(=O)(=O)c2ccccc2)c1OC (stereo not given)"
  Assigned class: "yes"
- Compound: "Cc1cccc(N2CCN(C(=O)c3cc4c(=O)[nH]c5ccccc5c4n3C)CC2)c1C"
  Assigned class: "no"
- Compound: "COC(=O)Cc1ccc(NC(=S)NCc2ccc(Cl)cc2)cc1"
  Assigned class: "no"

I would be grateful if you could indicate the recorded call for CN(C)CCNC(CC(=O)Nc1ccc(Cl)c(Cl)c1)C(=O)O (stereo not given) .
no

Query Cc1ccc(C(=O)NCCN2CCOCC2)cc1C next
no

Query CC(CCc1ccccc1)NC(=O)COC(=O)c1ccc(F)cc1 (stereo not given) next
no

###

System name: Neuropeptides B/W receptor type 1 (Homo sapiens)
Assay info: GPR7 receptor antagonists, primary screen, cell-based, fluorescence, single concentration (AID 1861);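 note: cells stimulated with the agonist NPW; 0% = agonist with vehicle and 100% = vehicle without agonist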
Measurement context: GPR7-expressing cells, fluorescence antagonist assay; at 4.4 µM
The campaign covered roughly 290,000 compounds. About 3,100 (1.1%) were called active. Cut-off read from the data, not from the text of the source: active = inhibition above about 16% (passing the limit was not always enough); inactive = the rest. For the sample, actives were picked, then their nearest neighbours and some compounds at random.
Hello, when you answer, please use one of the following outcomes: Yes for active, No for inactive

Reference set, count: 10
- Molecule: "Cc1ccc(NC(=O)CN2C(=O)NC(C)(c3ccc(Cl)cc3)C2=O)c(Br)c1 (configuration not stated)"
  Assigned class: "Yes"
- Molecule: "COc1ccc(Nc2cc(Cl)ccc2C(=O)O)cn1"
  Assigned class: "No"
- Molecule: "COc1ccccc1N1CC(C(=O)Nc2nnc(SCC(=O)NC(C)C)s2)CC1=O (configuration not stated)"
  Assigned class: "No"
- Molecule: "COc1ccc(C(=O)Nc2ccc(NC(=O)C(C)C)nc2)cc1"
  Assigned class: "No"
- Molecule: "N=c1c2c(-c3ccccc3)c(-c3ccccc3)n(Cc3ccccc3)c2ncn1CCCO"
  Assigned class: "Yes"
- Molecule: "COc1ccccc1N(C(=O)Cn1nnc2ccccc21)C(C(=O)NCc1ccco1)c1ccc(C)o1 (configuration not stated)"
  Assigned class: "Yes"
- Molecule: "COc1ccc(CS(=O)/C(Cl)=C(/Cl)C(=O)Nc2ccc(OC)nc2)cc1 (configuration not stated)"
  Assigned class: "Yes"
- Molecule: "COc1ccc(NC(=O)c2cc(-c3ccc(C)cc3)on2)cc1"
  Assigned class: "No"
- Molecule: "O=C(Cc1ccccn1)c1ccc(O)cc1O"
  Assigned class: "No"
- Molecule: "O=C(Cc1cccs1)NCc1cccc(C(F)(F)F)c1"
  Assigned class: "No"

I would be grateful if you could indicate the recorded call for CS(=O)(=O)N(Cc1ccc(Cl)cc1)c1ccc(C(=O)NCCSCc2ccco2)cc1 .
Yes

Query CCOC(=O)C1(Cc2ccccc2C(F)(F)F)CCN(C(=O)c2cc(C)n(C)n2)CC1 next
No

Query O=C(CN1C(=O)NC2(CCCC2)C1=O)Nc1ccc(F)c(F)c1F next
No

Query COc1ccc(C(=O)N2CCc3cc(OC)c(OC)cc3C2c2cccc([N+](=O)[O-])c2)cc1 (configuration not stated) next
No

Query CCc1ccccc1N(CC(=O)NCCSCc1ccco1)S(C)(=O)=O next
No

Query O=C(CC1C(=O)NCCN1CC(c1ccccc1)c1ccccc1)NCC1CCOCC1 (configuration not stated) next
No

Query N=c1c2c(-c3ccccc3)c(-c3ccccc3)oc2ncn1Cc1ccco1 next
No

Query CCOc1ccc(S(=O)(=O)Nc2ccc(OC)nc2)cc1 next
No

Query O=C(Nc1cccc(Br)c1)c1ccc2snnc2c1 next
No

Query Cc1cc(C)cc(N(CC(=O)NCCSCc2ccco2)S(C)(=O)=O)c1 next
No

Query O=C(Nc1ccc2ccccc2c1)Nc1ccc2snnc2c1 next
Yes

Query Cc1cccc(NC(=O)C(C)SCc2ccccc2)c1 (configuration not stated) next
No
